Molecular target: human PF4 (Homo sapiens, UniProt P02776)
Construct: PF4 is a 70 amino acid, lysine-rich 7.8 kDa platelet-specific protein; made in house; host or cells: Escherichia coli BL21DE3 pLysS (pT7-7) and/or Drosophila S2 cells
Sequence (P02776 32-101): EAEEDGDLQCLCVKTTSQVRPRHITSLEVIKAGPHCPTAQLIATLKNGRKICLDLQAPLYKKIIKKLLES
Test: Inhibition of PF4 tetramer formation (BS3 cross-linking, SDS-PAGE)
Type: biochemical
Settings: 3 μM inhibitor (column A); read-out: % inhibition of PF4 tetramer formation at single concentration of inhibitor
Property: inhibition at 3 µM; scope: individual compounds
The response must be a number in % with no trailing unit.

1) O=C(O)CNC(=O)C1C(=O)c2ccc(C(=O)c3ccc4c(c3)C(=O)C(C(=O)NCC(=O)O)C4=O)cc2C1=O (stereo not drawn)    32

Input: Quote inhibition at 3 µM with test system human PF4 (Homo sapiens, UniProt P02776) for COCCOCCOCCNC(=O)C1C(=O)c2ccc(C(=O)c3ccc4c(c3)C(=O)C(C(=O)NCCOCCOCCOC)C4=O)cc2C1=O (stereo not drawn)
Output: 31

Input: Quote inhibition at 3 µM with test system human PF4 (Homo sapiens, UniProt P02776) for O=C1c2ccc(Oc3ccc4c(c3)C(=O)C(C(=O)[C@@H]3C[C@H]3C(=O)O)C4=O)cc2C(=O)C1C(=O)[C@@H]1C[C@H]1C(=O)O (stereo partly drawn)
Output: 67

====

Target: human PF4 (Homo sapiens)
Construct: PF4 is a 70 amino acid, lysine-rich 7.8 kDa platelet-specific protein; made in house; host or cells: Escherichia coli BL21DE3 pLysS (pT7-7) and/or Drosophila S2 cells
Assay: Inhibition of PF4 tetramer formation (BS3 cross-linking, SDS-PAGE)
Assay type: biochemical
Settings: 1 μM inhibitor; read-out: % inhibition of PF4 tetramer formation at single concentration of inhibitor
Readout label: inhibition at 1 µM (%)
The response must be a number in % with no trailing unit.

1) CC(C)OC/C(O)=C1/C(=O)c2ccc(C(=O)c3ccc4c(c3)C(=O)/C(=C(/O)COC(C)C)C4=O)cc2C1=O    17

Input: Name the recorded inhibition at 1 µM of the compound listed here: COCCOCCN(CC(=O)C1C(=O)c2ccc(Oc3ccc4c(c3)C(=O)C(C(=O)CN(CCOCCOC)C(=O)OC(C)(C)C)C4=O)cc2C1=O)C(=O)OC(C)(C)C (centres unmarked)
Output: 27

====

Biological target: human PF4 (Homo sapiens, UniProt P02776)
Construct: PF4 is a 70 amino acid, lysine-rich 7.8 kDa platelet-specific protein; made in house; host or cells: Escherichia coli BL21DE3 pLysS (pT7-7) and/or Drosophila S2 cells
Test: Inhibition of PF4 tetramer formation (BS3 cross-linking, SDS-PAGE)
Type: biochemical
Details: 10 μM inhibitor (column A); read-out: % inhibition of PF4 tetramer formation at single concentration of inhibitor
Entry flag: yes if inhibition at 10 µM reaches 90%; no if it does not.

Take a look at these entries with their results.
1. CC(C)(C)OC(=O)N[C@@H](CC(=O)O)C(=O)C1C(=O)c2ccc(C(=O)c3ccc4c(c3)C(=O)C(C(=O)[C@H](CC(=O)O)NC(=O)OC(C)(C)C)C4=O)cc2C1=O (some centres unmarked)    yes
2. CCOC(=O)CNC(=O)C1C(=O)c2ccc(C(=O)c3ccc4c(c3)C(=O)C(C(=O)NCC(=O)OCC)C4=O)cc2C1=O (centres unmarked)    no
3. CO[C@H](C)[C@H](N)C(=O)C1C(=O)c2ccc(C(=O)c3ccc4c(c3)C(=O)C(C(=O)[C@@H](N)[C@@H](C)OC)C4=O)cc2C1=O (some centres unmarked)    no

Could you now look at the following compound, please?
Input: # check: inhibition at 10 µM of N[C@@H](C(=O)C1C(=O)c2ccc(S(=O)(=O)c3ccc4c(c3)C(=O)C(C(=O)[C@H](N)c3ccccc3)C4=O)cc2C1=O)c1ccccc1 (some centres unmarked) is greater than or equal to 90%
Output: yes

====

Target: human PF4 (Homo sapiens, UniProt P02776)
Construct: PF4 is a 70 amino acid, lysine-rich 7.8 kDa platelet-specific protein; made in house; host or cells: Escherichia coli BL21DE3 pLysS (pT7-7) and/or Drosophila S2 cells
Experiment: Inhibition of PF4 tetramer formation (BS3 cross-linking, SDS-PAGE)
Format: biochemical
Conditions: read-out: IC50 of PF4 tetramer formation inhibition
Readout label: IC50

1) CC(C)(C)OC(=O)N1C[C@@H]2[C@H](C1)[C@H]2C(=O)C1C(=O)c2ccc(-c3ccc4c(c3)C(=O)C(C(=O)[C@H]3[C@@H]5CN(C(=O)OC(C)(C)C)C[C@@H]53)C4=O)cc2C1=O (some centres unmarked)    2.5 µM
2) CC(C)(C)OC(=O)NCC(=O)C1C(=O)c2ccc(C(=O)c3ccc4c(c3)C(=O)C(C(=O)CNC(=O)OC(C)(C)C)C4=O)cc2C1=O (centres unmarked)    2.2 µM
3) COCC(=O)C1C(=O)c2ccc(C(=O)c3ccc4c(c3)C(=O)C(C(=O)COC)C4=O)cc2C1=O (centres unmarked)    1.51 µM
4) CC(C)(C)OC(=O)NCCC(=O)C1C(=O)c2ccc(S(=O)(=O)c3ccc4c(c3)C(=O)C(C(=O)CCNC(=O)OC(C)(C)C)C4=O)cc2C1=O (centres unmarked)    5 µM
5) C[C@@H](C(=O)C1C(=O)c2ccc(S(=O)(=O)c3ccc4c(c3)C(=O)C(C(=O)[C@H](C)N(C)C(=O)OC(C)(C)C)C4=O)cc2C1=O)N(C)C(=O)OC(C)(C)C (some centres unmarked)    6.3 µM

Input: Name the recorded IC50 of the molecule listed here: Cc1ccccc1NC(=O)C1C(=O)c2ccc(C(=O)c3ccc4c(c3)C(=O)C(C(=O)Nc3ccccc3C)C4=O)cc2C1=O (centres unmarked)
Output: 4.6 µM

Input: Name the recorded IC50 of the molecule listed here: `CC1(C)O[C@H]2O[C@@H](/C(O)=C3\C(=O)c4ccc(C(=O)c5ccc6c(c5)C(=O)/C(=C(\O)[C@@H]5O[C@@H]7OC(C)(C)O[C@@H]7[C@H]7OC(C)(C)O[C@@H]75)C6=O)cc4C3=O)[C@H]3OC(C)(C)O[C@@H]3[C@H]2O1`
Output: 3.8 µM

Input: Name the recorded IC50 of the molecule listed here: O=C(NC1CC1)C1C(=O)c2ccc(S(=O)(=O)c3ccc4c(c3)C(=O)C(C(=O)NC3CC3)C4=O)cc2C1=O (centres unmarked)
Output: 1.06 µM

Input: Name the recorded IC50 of the molecule listed here: O=C(NCCc1ccc(F)cc1)C1C(=O)c2ccc(S(=O)(=O)c3ccc4c(c3)C(=O)C(C(=O)NCCc3ccc(F)cc3)C4=O)cc2C1=O (centres unmarked)
Output: 2.3 µM

Input: Name the recorded IC50 of the molecule listed here: COC(=O)[C@@H]1C[C@H]1C(=O)C1C(=O)c2ccc(C(=O)c3ccc4c(c3)C(=O)C(C(=O)[C@@H]3C[C@H]3C(=O)OC)C4=O)cc2C1=O (some centres unmarked)
Output: 1.2 µM

Input: Name the recorded IC50 of the molecule listed here: CC(=O)C1(C(=O)OC(C)(C)C)C(=O)c2ccc(Oc3ccc4c(c3)C(=O)C(C(C)=O)(C(=O)OC(C)(C)C)C4=O)cc2C1=O (centres unmarked)
Output: 10.4 µM

Input: Name the recorded IC50 of the molecule listed here: CC(C)(C)OC(=O)N1CCSC1C(=O)C1C(=O)c2ccc(C(=O)c3ccc4c(c3)C(=O)C(C(=O)C3SCCN3C(=O)OC(C)(C)C)C4=O)cc2C1=O (centres unmarked)
Output: 6.3 µM

Input: Name the recorded IC50 of the molecule listed here: CSCCCC(=O)C1C(=O)c2ccc(S(=O)(=O)c3ccc4c(c3)C(=O)C(C(=O)CCCSC)C4=O)cc2C1=O (centres unmarked)
Output: 3 µM

Input: Name the recorded IC50 of the molecule listed here: CCOC(=O)NC(=O)C1C(=O)c2ccc(C(=O)c3ccc4c(c3)C(=O)C(C(=O)NC(=O)OCC)C4=O)cc2C1=O (centres unmarked)
Output: 20 µM

Input: Name the recorded IC50 of the molecule listed here: COC1CCC(C(=O)C2C(=O)c3ccc(S(=O)(=O)c4ccc5c(c4)C(=O)C(C(=O)C4CCC(OC)CC4)C5=O)cc3C2=O)CC1 (centres unmarked)
Output: ~6 µM

Input: Name the recorded IC50 of the molecule listed here: CC(C)C(=O)NCC(=O)C1C(=O)c2ccc(S(=O)(=O)c3ccc4c(c3)C(=O)C(C(=O)CNC(=O)C(C)C)C4=O)cc2C1=O (centres unmarked)
Output: ~3 µM

Input: Name the recorded IC50 of the molecule listed here: CSCCCC(=O)C1C(=O)c2ccc(Oc3ccc4c(c3)C(=O)C(C(=O)CCCSC)C4=O)cc2C1=O (centres unmarked)
Output: 10 µM
